# assay explanation: self-splicing fitness, log relative to wild type (ln ratio); higher = more splicing; Tetrahymena group I intron in knt gene, E. coli kanamycin selection, DiMSum; sequences stand for … in CUCUCU…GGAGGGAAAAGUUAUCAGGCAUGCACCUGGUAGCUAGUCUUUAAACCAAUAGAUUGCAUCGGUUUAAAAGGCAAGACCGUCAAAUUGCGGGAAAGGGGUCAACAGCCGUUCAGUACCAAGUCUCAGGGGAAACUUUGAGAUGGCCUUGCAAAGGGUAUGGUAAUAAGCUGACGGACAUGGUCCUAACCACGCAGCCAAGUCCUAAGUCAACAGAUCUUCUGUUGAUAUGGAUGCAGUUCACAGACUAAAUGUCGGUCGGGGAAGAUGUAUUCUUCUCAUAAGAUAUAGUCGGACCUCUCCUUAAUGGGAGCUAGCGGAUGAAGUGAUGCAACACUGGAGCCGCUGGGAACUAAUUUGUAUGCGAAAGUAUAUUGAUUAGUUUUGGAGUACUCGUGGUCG;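 further: selection with 25 µg/mL kanamycin versus none on LB agar overnight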
# conditions: 37 °C
Parameter self-splicing fitness (ln): see the listing below.
Number only, please.

Assign self-splicing fitness (ln) to the following record: `GACAAGCAAUAUUACGUAAA`
-1.09

Assign self-splicing fitness (ln) to the following record: `AACUAGCAAUAUUACGCUAA`
-1.51

Assign self-splicing fitness (ln) to the following record: `UAAAAGCAAUAUUACGCCAG`
-0.458

Assign self-splicing fitness (ln) to the following record: `AUGUAGCAAUAUUACGGGAU`
-1.33

Assign self-splicing fitness (ln) to the following record: `GACGAGCAAUAUUACGCGCU`
-2.87

Assign self-splicing fitness (ln) to the following record: `UGACAGCAAUAUUACGGAGU`
-2.79

Assign self-splicing fitness (ln) to the following record: `GUCUAGCAAUAUUACGAGGG`
-1.57

Assign self-splicing fitness (ln) to the following record: `GAACAGCAAUAUUACGUAAU`
-0.107

Assign self-splicing fitness (ln) to the following record: `AGGAAGCAAUAUUACGAUAU`
-2.5

Assign self-splicing fitness (ln) to the following record: `CUGCAGCAAUAUUACGUGUU`
-2.28

Assign self-splicing fitness (ln) to the following record: `AAGAAGCAAUAUUACGAAAG`
-1.69

Assign self-splicing fitness (ln) to the following record: `GAUUAGCAAUAUUACGUCAG`
-4.23

Assign self-splicing fitness (ln) to the following record: `CGGGAGCAAUAUUACGUCAA`
-2.79

Assign self-splicing fitness (ln) to the following record: `CCACAGCAAUAUUACGCGCG`
-0.161

Assign self-splicing fitness (ln) to the following record: `ACCGAGCAAUAUUACGUCUA`
-2.86

Assign self-splicing fitness (ln) to the following record: `ACGUAGCAAUAUUACGUUUU`
-1.15

----------
Parameter self-splicing fitness (ln): see the listing below.
# assay explanation: self-splicing fitness, log relative to wild type (ln ratio); higher = more splicing; Tetrahymena group I intron in knt gene, E. coli kanamycin selection, DiMSum; sequences stand for … in CUCUCU…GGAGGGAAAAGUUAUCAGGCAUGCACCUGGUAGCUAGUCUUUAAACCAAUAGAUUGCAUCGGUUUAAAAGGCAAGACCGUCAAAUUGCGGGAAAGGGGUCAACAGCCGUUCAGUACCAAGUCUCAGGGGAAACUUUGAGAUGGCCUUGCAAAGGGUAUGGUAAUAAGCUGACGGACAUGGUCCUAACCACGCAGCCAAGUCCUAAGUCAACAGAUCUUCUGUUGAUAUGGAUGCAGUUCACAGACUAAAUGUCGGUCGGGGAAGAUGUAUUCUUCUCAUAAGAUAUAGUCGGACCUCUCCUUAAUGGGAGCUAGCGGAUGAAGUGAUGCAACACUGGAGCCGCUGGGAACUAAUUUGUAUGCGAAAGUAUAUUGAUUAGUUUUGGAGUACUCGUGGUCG
# conditions: 37 °C

The examples below pair each entry with its known result.
CGACAGCAAUAUUACGGAGC -3.04
UUUCAGCAAUAUUACGUAGA -0.283
ACACAGCAAUAUUACGGGGG -2.45
GGUGAGCAAUAUUACGGUAG -2.59
UUAAAGCAAUAUUACGUGAU -1.15
UGCGAGCAAUAUUACGGUUU -2.62
CCCAAGCAAUAUUACGGAUC -2.45
CCAAAGCAAUAUUACGGUCA -1.78

Assign self-splicing fitness (ln) to the following record: `CAUCAGCAAUAUUACGGAUA`
0.0386

Assign self-splicing fitness (ln) to the following record: `GGUCAGCAAUAUUACGCGGG`
-2.61

Assign self-splicing fitness (ln) to the following record: `UUUGAGCAAUAUUACGGGAA`
-2.22

Assign self-splicing fitness (ln) to the following record: `CACUAGCAAUAUUACGACAA`
-2.06
